Test system: DU-145
protocol.description: Cell growth inhibition assay, prostate cancer cell line DU-145
Type: cell-based
stated.conditions: Homo sapiens, DU-145 prostate cancer cell line
readout.type: IC50 (µM)
// units = µM; emit number, no label

Reference set, count: 5
                              smiles_record  units_of_measure  recorded_result
0  COc1cc(OC(F)(F)F)cc(C(C)(C)c2cccc(NC(=O)c3cc4ccc(NS(C)(=O)=O)cc4[nH]3)c2)c1                µM            0.035
1  CS(=O)(=O)Nc1ccc2sc(C(=O)Nc3cc(Cl)cc(Oc4cccc(Cl)c4)c3)cc2c1                µM             0.25
2  CS(=O)(=O)Nc1ccc2sc(C(=O)Nc3cc(Cl)cc(Oc4cc(Cl)cc(C#N)c4)c3)cc2c1                µM             0.17
3  CC(C)Oc1cc(OC(F)(F)F)cc(C(C)(C)c2cc(Cl)cc(NC(=O)c3cc4c(s3)CCN(S(C)(=O)=O)C4)c2)c1                µM             0.17
4  CS(=O)(=O)Nc1cc2cc(C(=O)Nc3cc(Cl)cc(C4(c5ccc(Cl)cc5)CC4)c3)sc2cc1Cl                µM            0.006

Output measured IC50 for this item: `COc1sccc1C(C)(C)c1cc(Cl)cc(NC(=O)c2cc3cc(NS(C)(=O)=O)ccc3s2)c1`
0.038

State, in one line, measured IC50 of `CC(C)Oc1cc(OC(F)(F)F)cc(C(C)(C)c2cc(Cl)cc(N(C)C(=O)c3cc4cc(N(C)S(C)(=O)=O)c(F)cc4s3)c2)c1`
0.3

Complete the entry with IC50 for `CN(c1ccc2sc(C(=O)Nc3cc(Cl)cc(C(C)(C)c4ccc(Cl)cc4)c3)cc2c1)S(C)(=O)=O`
0.008

Consider the compound `CS(=O)(=O)Nc1ccc2cc(C(=O)Nc3cc(Br)cc(-c4ccc(F)cc4F)c3)[nH]c2c1` and give its recorded IC50.
0.57

Give the value of IC50 reported for the following: `CC(C)(c1cc(Cl)cc(NC(=O)c2cc3cc(NS(C)(=O)=O)c(Cl)cc3s2)c1)N1CCCCC1`
0.07

====

This section presents compounds with their documented IC50 values.
Test system: DU-145
protocol.description: Cell growth inhibition assay, prostate cancer cell line DU-145
Assay type: cell-based
stated.conditions: Homo sapiens, DU-145 prostate cancer cell line
Numbers only here, please. The scale is µM.

Examples from the recorded data:
>>> print(df.to_string())
                                   compound  readout_type  units_of_measure  recorded_result
0  CC(C)(c1ccc(Cl)cc1)c1cc(Cl)cc(NC(=O)c2cc3cc(NS(=O)(=O)CCO)c(Cl)cc3s2)c1 [Example 188]          IC50                µM            0.026
1  CC(C)Oc1cc(OC(F)(F)F)cc(N(C)c2cc(Cl)cc(NC(=O)c3cc4cc(NS(C)(=O)=O)ccc4s3)c2)c1 [Example 443]          IC50                µM             0.02
2  CC(C)Oc1cc(OC(F)(F)F)cc(C(C)(C)c2cc(Cl)cc(NC(=O)c3cc4cc(NS(=O)(=O)CC5CCOCC5)ccc4s3)c2)c1 [Example 198]          IC50                µM            0.017
3  CC(C)Oc1cc(-c2cnn(C)c2)cc(C(C)(C)c2cc(Cl)cc(NC(=O)c3cc4cc(NS(C)(=O)=O)ccc4s3)c2)c1 [Example 143]          IC50                µM             0.18
4  COc1cc(OC(F)(F)F)cc(-c2cc(Cl)cc(NC(=O)c3cc4cc(NS(C)(=O)=O)c(F)cc4s3)c2)c1 [Example 325]          IC50                µM             0.15

Annotate the compound CS(=O)(=O)Nc1ccc2sc(C(=O)Nc3cc(Cl)cc(Oc4ccc(OC(F)(F)F)cc4)c3)cc2c1 [Example 454] with its measured IC50.
0.059

Input CC(C)Oc1cc(OC(F)(F)F)cc(C(C)(C)c2cc(Cl)cc(NC(=O)c3cc4cc(NS(C)(=O)=O)ncc4s3)c2)c1 [Example 71] , output reported IC50.
0.048

Note IC50 for the compound shown: CC(C)(c1ccc(F)cc1)c1cc(Cl)cc(NC(=O)c2cc3ccc(NS(C)(=O)=O)cc3[nH]2)c1 [Example 21]
0.19

Provide measured IC50 value, entry: CC(C)(c1cc(Cl)cc(NC(=O)c2cc3cc(NS(C)(=O)=O)ccc3s2)c1)c1cc(OC2COC2)cc(OC(F)(F)F)c1 [Example 76]
0.34

Give the value of IC50 reported for the following: COc1cc(OC(F)(F)F)cc(C(C)(C)c2cc(Cl)cc(NC(=O)c3cc4cc(NS(C)(=O)=O)ccc4s3)c2)c1 [Example 42]
0.009

====

Entries and their measured IC50 follow.
Test system: LNCaP
protocol.description: Cell growth inhibition assay, prostate cancer cell line LNCaP (medium with 10 ng/mL IL-6)
Type: cell-based
stated.conditions: Homo sapiens, medium supplemented with 10 ng/mL of IL-6, 10,000 cells/well

Below, 3 molecules whose answers are already recorded.
>>> print(df.to_string())
                                   molecule  recorded_result
0  CS(=O)(=O)Nc1ccc2cc(C(=O)Nc3cc(C(=O)N4CCOCC4)cc(-c4ccc(F)cc4F)c3)[nH]c2c1          > 10 µM
1  CC(O)(c1ccccc1)c1cccc(NC(=O)c2cc3ccc(NS(C)(=O)=O)cc3[nH]2)c1 (stereo not shown)          > 10 µM
2  CS(=O)(=O)Nc1ccc2sc(C(=O)Nc3cc(Cl)cc(Oc4ccc(F)cc4)c3)cc2c1          0.13 µM

Identify measured IC50 associated with `COc1cc(Cl)cc(Oc2cc(Cl)cc(NC(=O)c3cc4cc(NS(C)(=O)=O)c(Cl)cc4s3)c2)c1`
0.059 µM

Check the records and state IC50 for `CN(C)C(=O)c1cc(NC(=O)c2cc3ccc(NS(C)(=O)=O)cc3[nH]2)cc(-c2ccc(F)cc2F)c1`
> 10 µM

Read the entry `CS(=O)(=O)Nc1ccc2c(C(=O)Nc3cccc(-c4ccccc4C(F)(F)F)c3)c[nH]c2c1` and write its reported IC50.
> 10 µM

Return IC50 (reported value) for this molecule: `COc1cc2cc(C(=O)Nc3cccc(-c4ccc(F)cc4F)c3)[nH]c2cc1NS(C)(=O)=O`
2.7 µM

====

Tested on: LNCaP
protocol.description: Cell growth inhibition assay, prostate cancer cell line LNCaP (medium with 10 ng/mL IL-6)
Type: cell-based
stated.conditions: Homo sapiens, medium supplemented with 10 ng/mL of IL-6, 10,000 cells/well
// NB: equality with 0.5 µM counts as no; only IC50 strictly below is yes

Solved entries (count: 5):
>>> df
                                   compound  qualitative_label
0  CC(C)(c1cc(Cl)cc(NC(=O)c2cc3cc(NS(C)(=O)=O)ccc3s2)c1)N1CCCCC1                 no
1  CC(C)Oc1cc(OC(F)(F)F)cc(N(C)c2cc(Cl)cc(NC(=O)c3cc4cc(NS(C)(=O)=O)ccc4s3)c2)c1                yes
2  CC(C)Oc1cc(OC(F)(F)F)cc(C(C)(C)c2cc(Cl)cc(NC(=O)c3cc4cc(OP(=O)(O)O)ccc4s3)c2)c1                 no
3  CC(C)Oc1cc(OC(F)(F)F)cc(C(C)(C)c2cc(Cl)cc(NC(=O)c3cc4cc(NS(=O)(=O)C(C)C)ccc4s3)c2)c1                yes
4  CC(C)(Oc1ccc2cc(C(=O)Nc3cccc(-c4ccc(F)cc4F)c3)[nH]c2c1)C(=O)O                 no

Here's an entry: `CC(C)(c1ccc(F)cc1)c1cccc(NC(=O)c2cc3cc(NS(C)(=O)=O)ccc3s2)c1` . Is its IC50 below 0.5 µM?
yes

====

test.system: STAT3 (Homo sapiens, UniProt P40763)
Construct: plasmid pSTAT3-TA-luc), which contains a stably operating STAT3 promoter; endogenous in cells
Sequence (P40763 whole entry): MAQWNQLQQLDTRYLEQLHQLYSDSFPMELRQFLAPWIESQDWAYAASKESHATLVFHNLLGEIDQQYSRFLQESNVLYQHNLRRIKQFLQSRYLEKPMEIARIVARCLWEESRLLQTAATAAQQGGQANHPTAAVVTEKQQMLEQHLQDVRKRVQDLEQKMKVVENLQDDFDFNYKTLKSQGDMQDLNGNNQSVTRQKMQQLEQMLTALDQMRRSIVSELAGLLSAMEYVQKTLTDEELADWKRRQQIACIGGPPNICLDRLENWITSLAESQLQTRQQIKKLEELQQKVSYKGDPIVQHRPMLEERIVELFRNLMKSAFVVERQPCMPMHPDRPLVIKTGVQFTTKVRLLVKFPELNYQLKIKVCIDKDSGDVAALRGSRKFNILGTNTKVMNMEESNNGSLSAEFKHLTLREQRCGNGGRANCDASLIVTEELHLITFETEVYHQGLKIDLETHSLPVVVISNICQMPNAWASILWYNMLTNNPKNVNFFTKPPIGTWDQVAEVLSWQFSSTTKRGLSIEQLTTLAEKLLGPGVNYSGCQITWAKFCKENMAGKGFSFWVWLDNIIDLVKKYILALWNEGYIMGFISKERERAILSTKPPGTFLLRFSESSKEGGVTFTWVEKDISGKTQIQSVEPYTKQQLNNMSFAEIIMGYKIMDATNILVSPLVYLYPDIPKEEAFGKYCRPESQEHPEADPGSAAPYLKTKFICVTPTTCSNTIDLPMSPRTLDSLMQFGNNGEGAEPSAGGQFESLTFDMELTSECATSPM
protocol.description: STAT3 reporter gene assay (luciferase), LNCaP stable cell line (pSTAT3-TA-luc), IL-6 stimulation
Assay type: cell-based
In this section we review reported IC50 values for a set of molecules.

                              smiles_record  recorded_result
0  CS(=O)(=O)Nc1ccc2cc(C(=O)Nc3cc(OCC(F)F)cc(-c4ccc(F)cc4F)c3)[nH]c2c1           1.2 µM
1  CS(=O)(=O)Nc1ccc2sc(C(=O)Nc3cc(Cl)cc(Nc4ccc(F)cc4F)c3)cc2c1           0.2 µM
2  CS(=O)(=O)Nc1ccc2cc(C(=O)Nc3cccc(-c4ccc(C#N)cc4C(F)(F)F)c3)[nH]c2c1           1.9 µM

Next:
Specify IC50 for `CC(C)(C)OC(=O)n1cccc1-c1cc(NC(=O)c2cc3ccc(NS(C)(=O)=O)cc3[nH]2)cc(-c2ccc(F)cc2F)c1` and stop.
1.5 µM
